Biological target: CYP3A4 (Homo sapiens, UniProt P08684)
Sequence (P08684 whole entry): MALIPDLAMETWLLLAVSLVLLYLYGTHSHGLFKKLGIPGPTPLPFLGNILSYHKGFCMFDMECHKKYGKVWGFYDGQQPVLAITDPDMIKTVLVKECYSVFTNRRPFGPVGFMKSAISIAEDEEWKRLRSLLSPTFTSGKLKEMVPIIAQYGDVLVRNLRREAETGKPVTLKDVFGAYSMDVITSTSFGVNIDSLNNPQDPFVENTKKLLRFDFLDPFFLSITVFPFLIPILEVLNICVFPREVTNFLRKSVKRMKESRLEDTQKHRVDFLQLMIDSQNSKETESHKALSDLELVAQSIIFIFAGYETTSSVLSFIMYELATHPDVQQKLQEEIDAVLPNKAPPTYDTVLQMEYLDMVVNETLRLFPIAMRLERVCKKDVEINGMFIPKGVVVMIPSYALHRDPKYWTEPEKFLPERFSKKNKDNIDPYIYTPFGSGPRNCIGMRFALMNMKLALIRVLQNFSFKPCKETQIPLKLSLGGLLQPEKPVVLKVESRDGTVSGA
Experiment: Determination of IC50 against CYP3A4 by measurement of inhibition of midazolam metabolism (human liver microsomes, 1-hydroxymidazolam by LC-MS/MS)
Type: biochemical
Set-up: 0.1 mg/mL human liver microsomes
Settings: 2 μM midazolam, 0.1 mg/mL human liver microsomes
IC50 values by entry

// solved cases for IC50 follow
COc1cncc(NS(=O)(=O)c2ccccc2C(=O)NCc2cccc(Cl)c2C)c1	< 3 nM
Cc1cncc(NS(=O)(=O)c2ccccc2C(=O)N(C)Cc2ccc(F)c(F)c2)c1	7.67 nM
Cc1cncc(NS(=O)(=O)c2ccccc2C(=O)NC(C)C2CC2)c1 (stereo not shown)	22 nM

In the following, a different molecule is considered.
Please provide the recorded IC50 for CCOc1cncc(NS(=O)(=O)c2ccccc2C(=O)NC2CC2)c1 , tested on CYP3A4 (Homo sapiens, UniProt P08684).
140 nM

Reference source: patent US7868026B2
